Field: TGI. Provide a value for each of the compounds that follow.
system: TK-10 renal; test: NCI tumour cell line growth inhibition, 48 h
*1 amine or outer side, *2 acyl side, *3 side chain or, on linkers, in order; H or OH if unused. Where a SMILES comes first, the peptide text is derived from it. Bridges are numbered along the chain shown (N, C = ends). Roman numbers before positions name the chains, in order. [ ]: non-standard residue; d: D form. Actinocin(9to1) = Cc1c2oc3c(C)ccc(C(=O)[*:1])c3nc-2c(C(=O)[*:2])c(N)c1=O; NMeF = CN[CH](Cc1ccccc1)C(=O)O; Sar = CNCC(=O)O

Would you kindly share the measured TGI for COC(=O)C(C)NC(=O)c1ccccc1I(OS(=O)(=O)C(F)(F)F)c1ccccc1 (stereo unspecified) ?
57.6 µM

Now this one: Cc1cn(S(=O)(=O)c2ccccc2)c2c(OCc3ccccc3)cc(NS(C)(=O)=O)cc12
> 100 µM

Item: COc1ccc2nc3cc(Cl)ccc3c(NCCNc3c4ccc(Cl)cc4nc4ccc(OC)cc34)c2c1
3.42 µM

Do the same for Cc1ccc(Sc2cc3c(oc2=O)-c2ccccc2OC3O)cc1 (stereo unspecified) please
84.9 µM

Repeat with CCSc1ccc(C2C(Br)C(=O)N2c2cc(OC)c(OC)c(OC)c2)cc1 (stereo unspecified)
33.4 µM

Another compound to look at: CC(C)(C)OC(=O)NCC(=O)N1CCN(C(=O)CNC(=O)OC(C)(C)C)CC1
> 100 µM

// next record Cc1cccc(Cc2cnc(NC(=O)CCc3ccc(C)o3)s2)c1
> 100 µM

Consider next the compound Cc1ccc(-n2cc([Si](C)(C)C)nn2)s1 in the same way.
> 100 µM

Continue with COc1cccc2c1n([O-])c1cccc(OC)c1[n+]2=O
> 100 µM

Also, Cc1cccc2c(O)cc(=O)oc12 please.
> 100 µM

Entry to check: COc1ccc(C[C@H](N)C(=O)N2C[C@@H](CO)C[C@@H](n3ccc(=O)[nH]c3=O)C2)cc1
> 100 µM

And then Cc1ccc(-c2cc(O)c(-c3ccc(C)cc3C)cc2O)c(C)c1 , what is it?
42.2 µM

Continue with CCCCNC(=O)/N=C/c1c(O)c2ccccc2oc1=O
> 100 µM

Now give it for Cc1cc(I)cc(CN(C)CCCN2CCN(C)CC2)c1O too.
> 100 µM

And then O=C(NC(=O)c1ccccc1[N+](=O)[O-])Nc1ccc(Oc2ncc(Cl)cn2)c(C(F)(F)F)c1 , what is it?
> 100 µM

Input CCN(CC)C(=S)[S][Bi]([S]C(=S)N(CC)CC)[S]C(=S)N(CC)CC
0.374 µM

Continue with CC[C@H](C)C(=O)O[C@H]1C[C@H](O)C=C2C=C[C@H](C)[C@H](CC[C@@H](O)C[C@@H](O)CC(=O)O)[C@H]21
> 100 µM

Next compound: NC(N)=NCCCC(NC(=O)OCCCCn1ccc(N)nc1=O)C(=O)O (stereo unspecified)
> 100 µM

Entry Cc1c2oc3c(C)ccc(C(=O)NC4C(=O)NC(C(C)C)C(=O)N5CCCC5C(=O)N(C)CC(=O)N(C)C(Cc5ccccc5)C(=O)OC4C)c3nc-2c(C(=O)NC2C(=O)NC(C(C)C)C(=O)N3CCCC3C(=O)N(C)CC(=O)N(C)C(Cc3ccccc3)C(=O)OC2C)c(N)c1=O (stereo unspecified) (I: TVP[Sar][NMeF] / II: TVP[Sar][NMeF]; ester I:1-I:C, II:1-II:C; linker I:N-II:N via Actinocin(9to1); configuration not given here) please
> 1 µM

Another compound to check: CCCCCCCCCCCCCC(=O)N(CCCCCCCCC)CC(O)C(O)C(OC1OC(CO)C(O)C(O)C1O)C(O)CO (stereo unspecified)
33.7 µM

Now this one: O=C(N/N=C/c1cc(Br)cc(Br)c1[O-])c1ccccc1O.O=C(N/N=C/c1cc(Br)cc(Br)c1[O-])c1ccccc1O.[Ni+2]
1.87 µM

Field entry: CCN1CCC(O)(/C=C/c2ccc(OC)cc2)C(C(=O)/C=C/c2ccc(OC)cc2)C1 (stereo unspecified)
26.7 µM

Note, next up: Cc1ccc(N=C2C(=Nc3ccc(C)cc3)N(c3ccc(C)cc3)C(=S)N2C(=O)c2ccccc2)cc1
> 100 µM

Would you mind doing CSc1scc2c1/C(=N/NC(N)=O)CCC2 as well?
> 100 µM

Ok, now CC(=O)Nc1ccccc1NC1CC(C)N(c2ccccc2)N1C(C)=O (stereo unspecified)
> 10 µM

What about this compound? COc1cc(Br)c(CC2C3=C(CCN2C(=O)C2CCC2)CC(=O)CC3)cc1O (stereo unspecified)
> 100 µM

// query: Oc1cc(Br)cc2cc(Cl)cnc12
> 94.3 µM

Would you mind doing Nc1ncc(-c2cccc(S(N)(=O)=O)c2)c2scc(-c3ccc(F)c(Cl)c3)c12 as well?
16.4 µM

And what about the compound CC(=O)/C(=C/N1CCNC1=S)C(=O)Nc1ccccc1C ?
> 100 µM

Cool, now N#CC1C=Cc2c(ccc3ccccc23)N1C(=O)c1ccccc1 (stereo unspecified)
> 65.8 µM

Same question, C=C(c1ccccc1)c1ccccc1-c1cc(-c2ccccc2)cc(-c2ccccc2)n1 this time
> 100 µM

Okay, and COc1ccc(C(=O)/C=C/c2cc(O)c(O)cc2F)c(OC)c1 ?
66.3 µM

Check CN1C/C(=C\C=C\c2ccccc2)C(=O)/C(=C/C=C/c2ccccc2)C1 too.
> 100 µM

Now the same for Cn1cc(C2=C(N3CCOCC3)C(=O)NC2=O)c2ccccc21
> 25 µM

And then COc1ccc(/C=C\c2cc(OC)c(OC)c(OC)c2)cc1O , what is it?
4.16 µM

And then O=c1oc2ccccc2c(O)c1C(C/C(CCN1CCCC1)=N\Nc1ccccc1)c1ccccc1 (stereo unspecified) , what is it?
> 100 µM

And then CCC[C@@H]1C(=O)N=C(N)N1C(=O)OCc1ccccc1 , what is it?
> 100 µM

Same read-out for CC(O)c1cc(C(=O)N[C@@H](C)Cn2ccc(-c3ccc(C#N)c(Cl)c3)n2)n[nH]1 (stereo partly specified) ?
> 100 µM

How about CCOC(=O)C(NC(=O)OC(C)(C)C)C(=O)OCC ?
> 100 µM

Now this one: CC(C)=CC(=O)Cc1nc2ccc([N+](=O)[O-])cc2[nH]c1=O
> 100 µM

Can you check COc1ccc(N2C(=O)C3c4[nH]c5ccccc5c4C4CCCCC4C3C2=O)cc1 (stereo unspecified) next?
58.8 µM

----------
test system: SF-268 CNS; assay: NCI tumour cell line growth inhibition, 48 h
I'd appreciate it if you could supply TGI values for the items below.

Recorded TGI for O=S1Nc2c(Cl)cc(Cl)c(Cl)c2S1 (stereo unspecified) , please?
> 100 µM

And O=c1c2ccccc2nc(N/N=C/c2ccccc2O)n1-c1ccccc1 ?
> 100 µM

Follow-up item: N.N.O=P([O-])([O-])C1(P(=O)([O-])[O-])CCCCCN1.[Pt+2]
> 100 µM

Proceed to COc1ccc(Cn2cc3c(c2-c2cc(OC)c(OC)c(OC)c2)CCc2cnoc2-3)cc1
> 100 µM

Continue with Nc1ncc(-c2cccc(S(N)(=O)=O)c2)c2scc(-c3ccc(F)c(Cl)c3)c12
> 25 µM

How about this compound: Cc1ccc(-n2cc([Si](C)(C)C)nn2)s1
> 100 µM

Same question, O=C1C(Cl)=C(Nc2cccc(C(F)(F)F)c2)C(=O)N1Cc1ccc(Cl)cc1 this time
14.8 µM

Request: CCCCCn1c(C)cc(/C=C\c2ccc3cc(C)ccc3[n+]2C)c1C
1.41 µM

Could you do the same for Fc1cc(-c2cc(-c3ccc4c(c3)OCO4)n[nH]2)c(Cl)cc1Cl , please?
9.7 µM

Query O=C(NC(=S)Nc1cc(Cl)ccc1O)c1cccc(Br)c1 next
> 100 µM

Then what about the compound Cc1c(C(=O)O)n2cnnc2c2ccccc12 ?
> 100 µM

Then what about the compound CCSc1ccc(C2C(Br)C(=O)N2c2cc(OC)c(OC)c(OC)c2)cc1 (stereo unspecified) ?
52.7 µM

What about this compound? NNC(=O)C(=O)N/N=C(\CCC(=O)Nc1ccc(Cl)cc1)Cc1nc2ccccc2s1
> 100 µM

Likewise for O=c1[nH]c(=S)c2cc3c(=S)[nH]c(=O)n(CCO)c3nc2n1CCO ?
> 100 µM

And CCN(CC)c1ccc(/C=C/C=C2\NC(=O)NC2=O)cc1 ?
> 100 µM

And the next one, CC(C)(C)OC(=O)NCC(=O)N1CCN(C(=O)CNC(=O)OC(C)(C)C)CC1 ?
39.7 µM

Another compound to check: c1ccc(CN2CCN3CCN(CC2)CCN(Cc2ccccc2)CC3)cc1
24.7 µM

Could you do the same for COc1ccc(C(=O)/C=C/c2cc(O)c(O)cc2F)c(OC)c1 , please?
32.3 µM

Another: CSc1scc2c1/C(=N/NC(N)=O)CCC2
> 100 µM

And then Cc1sc2nc3n(c(=O)c2c1C)N=CN(c1ccc(F)cc1)C3 , what is it?
> 100 µM

Then what about the compound CN(C)/N=N/c1nc[nH]c1C(N)=O ?
> 791 µM

# credit: PubChem BioAssay (NCI)
